- Study System: ERα (Homo sapiens, UniProt P03372)
- Construct: GST (N); made in house; host or cells: E. coli BL21(DE3)pLysS
- Protocol Notes: Estrogen receptor competition binding assay (SPA, [3H]Estradiol), ERα
- Condition Details: competition binding assay, GST-hERα ligand binding domain, 1 nM [3H]Estradiol; (n) = number of determinations; read-out: Avg. ER α pKi (n) (converted)
Recorded Ki, one value per entry.
The reply should be a number in nM, with the unit left off.

Compound	Units Of Measure	Ki
CN(CCCc1ccc(Cl)cc1Cl)c1nc(N(C)CCc2ccc(O)cc2)nc(N2CCNCC2)n1 [Example 23]	nM	501
C[C@@H]1CN(c2nc(N(C)CCCc3ccc(Cl)cc3)nc(N(C)CCc3ccc(O)cc3)n2)C[C@H](C)N1 [Example 16]	nM	229
CN(CCCc1ccc(Cl)cc1)c1nc(N(C)CCc2ccc(O)cc2)nc(N2CCNCC2)n1 [Example 14]	nM	562

Look up Ki of CN(CCCc1ccc(Cl)cc1)c1nc(NCCc2ccc(O)cc2)nc(N2CCN(C/C=C/c3ccccc3)CC2)n1 [Example 13] and report it.
141

Report Ki for COc1cccc(C(=O)N2CCN(c3nc(NCCc4ccc(O)cc4)nc(N(C)CCCc4ccc(Cl)cc4)n3)CC2)c1 [Example 3]
1780

Determine from records and report Ki for CN(CCCc1ccc(C(F)(F)F)cc1)c1nc(N(C)CCc2ccc(O)cc2)nc(N2CCNCC2)n1 [Example 22]
550

Identify the reported Ki for the following entry. CN(CCCc1ccc(F)c(F)c1)c1nc(N(C)CCc2ccc(O)cc2)nc(N2CCNCC2)n1 [Example 21]
214

State, in one line, measured Ki of CN(CCCc1ccc(Cl)cc1)c1nc(N(C)CCc2ccc(O)cc2)nc(N2CCN(CCO)CC2)n1 [Example 17]
603

---

- Study System: ERα (Homo sapiens)
- Construct: GST (N); made in house; host or cells: E. coli BL21(DE3)pLysS
- Sequence (P03372 311-547 limits assumed): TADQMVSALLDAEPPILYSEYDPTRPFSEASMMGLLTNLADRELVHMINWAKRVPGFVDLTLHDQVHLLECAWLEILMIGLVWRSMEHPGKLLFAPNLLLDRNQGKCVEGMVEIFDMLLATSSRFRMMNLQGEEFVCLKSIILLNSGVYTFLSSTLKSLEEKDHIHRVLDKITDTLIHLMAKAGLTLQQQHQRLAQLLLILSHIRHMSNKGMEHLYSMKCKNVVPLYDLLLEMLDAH
- Protocol Notes: Estrogen receptor competition binding assay (SPA, [3H]Estradiol), ERα
- Condition Details: competition binding assay, GST-hERα ligand binding domain, 1 nM [3H]Estradiol; (n) = number of determinations; read-out: Avg. ER α pKi (n) (converted)
The entries below come with measured Ki values attached.
I'd appreciate it if you wrote the number followed by its unit.

Molecule	Study System	Observed Measurement
CN(CCCc1ccc(F)cc1)c1nc(N(C)CCc2ccc(O)cc2)nc(N2CCNCC2)n1	ERα (Homo sapiens)	550 nM
CN1CCN(c2nc(N(C)CCCc3ccc(F)cc3)nc(N(C)CCc3ccc(O)cc3)n2)CC1	ERα (Homo sapiens)	562 nM

Indicate the recorded Ki value for this molecule: "CN(CCCc1ccc(Cl)cc1)c1nc(NCCc2ccc(O)cc2)nc(N2CCN(C(=O)c3ccccn3)CC2)n1"
4370 nM

Quote Ki reported for "CN(CCCc1ccc(Cl)cc1)c1nc(NCCc2ccc(O)cc2)nc(N2CCNCC2)n1" please.
339 nM

Assign Ki to the following record: "CN(CCCc1ccc(F)cc1)c1nc(NCCc2ccc(O)cc2)nc(N2CCNCC2)n1"
372 nM

Indicate the recorded Ki value for this molecule: CN1CCN(c2nc(NC3CCc4cc(O)ccc4C3)nc(SCCCc3ccccc3)n2)CC1 (stereo not drawn)
398 nM

Return reported Ki. Input molecule: "CN1CCN(c2nc(N(C)CCCc3ccc(Cl)cc3)nc(N(C)CCc3ccc(O)cc3)n2)CC1"
380 nM

Consider the molecule "CN(CCCc1ccc(Cl)cc1)c1nc(NCCc2ccc(O)cc2)nc(N2CCN(/C(=C/C(=O)c3ccccc3)C(F)(F)F)CC2)n1" . State its measured Ki.
1580 nM

Read the entry "CN(C)C(=O)CCN1CCN(c2nc(NCCc3ccc(O)cc3)nc(N(C)CCCc3ccc(Cl)cc3)n2)CC1" and write its reported Ki.
355 nM
